This section presents compounds with their documented viability values.
- ASSAY_NAME: drug combination growth inhibition, ovarian cancer – cell-based, oncology-focused library, rucaparib conditional, profiling panel (AID 1508598)
- MEASUREMENT_PARAMETERS: patient-derived ovarian cancer cells, CellTiter-Glo viability, 144 h; at 0.00488 µM; OCI-C5x cells; without rucaparib; hits give low values
Could you give me the number in %? Just the number is fine.

# annotated cases, reported viability shown
>>> recorded_result("CNC(=O)c1cc(Oc2ccc(NC(=O)Nc3ccc(Cl)c(C(F)(F)F)c3)c(F)c2)ccn1")
98.5
>>> recorded_result("COCCn1c2c([n+](Cc3cnccn3)c1C)C(=O)c1ccccc1C2=O")
91.8
>>> recorded_result("c1ccc2c(CCNc3ccc(Nc4ccncc4)cc3)c[nH]c2c1")
99.7
>>> recorded_result("COc1ccc(S(=O)(=O)Nc2cccnc2Nc2ccc(O)cc2)cc1")
133

Consider the record given below.
Bench note: what viability did `CNC(=O)c1ccc(C)c(-n2c(C)cc(OCc3ccc(F)cc3F)c(Br)c2=O)c1` show? 102
